assay: ATPlite cytotoxicity assay under Con1b replicon efficacy assay conditions; assay type: cell-based; conditions: human, Con1b replicon cell line
measured-attribute: CC50

Use the examples below as a reference point.
compound	CC50
CCC[C@H](NC(=O)[C@@H]1[C@H]2CCC[C@H]2CN1C(=O)[C@@H](NC(=O)[C@@H](NC(=O)c1cnccn1)C1CCCCC1)C(C)(C)C)C(=O)C(=O)NC1CC1 [Telaprevir, telaprevir]	97.8 µM
C[C@@]1(O)[C@H](O)[C@@H](CO)O[C@H]1n1ccc(N)nc1=O [2′-C-methylcytidine]	> 100 µM

Now turn to the next compound.
Data request, read-out CC50, for COC(=O)N[C@H](C(=O)N1CCC[C@H]1c1nc(-c2ccc(-c3ccc(-c4c[nH]c([C@@H]5CCCN5C(=O)[C@@H](NC(=O)OC)C(C)C)n4)cc3)cc2)c[nH]1)C(C)C [Daclatasvir, daclatasvir] 22 µM
